Hello, the source for this data is patent US20260274955A1, in case you need it.

# Target Under Test: T1, Ab-1
# T1 construct: also called anti-CD28 scFv harbored in Ab-1
# T1 sequence (heavy, as listed by the source, chain 1 of 2): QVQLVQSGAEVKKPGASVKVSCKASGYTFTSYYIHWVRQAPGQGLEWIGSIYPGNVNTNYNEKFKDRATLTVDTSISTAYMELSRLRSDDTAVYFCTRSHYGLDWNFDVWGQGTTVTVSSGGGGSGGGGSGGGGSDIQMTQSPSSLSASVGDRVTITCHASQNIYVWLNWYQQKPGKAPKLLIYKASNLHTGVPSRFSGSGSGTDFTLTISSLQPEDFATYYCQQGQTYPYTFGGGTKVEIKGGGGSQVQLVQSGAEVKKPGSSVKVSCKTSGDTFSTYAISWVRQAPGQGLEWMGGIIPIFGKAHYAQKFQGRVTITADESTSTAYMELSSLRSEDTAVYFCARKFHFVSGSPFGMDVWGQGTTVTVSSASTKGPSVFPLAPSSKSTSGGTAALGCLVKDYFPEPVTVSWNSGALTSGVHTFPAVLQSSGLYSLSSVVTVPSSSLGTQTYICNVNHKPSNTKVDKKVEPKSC
# T1 sequence (light, as listed by the source, chain 2 of 2): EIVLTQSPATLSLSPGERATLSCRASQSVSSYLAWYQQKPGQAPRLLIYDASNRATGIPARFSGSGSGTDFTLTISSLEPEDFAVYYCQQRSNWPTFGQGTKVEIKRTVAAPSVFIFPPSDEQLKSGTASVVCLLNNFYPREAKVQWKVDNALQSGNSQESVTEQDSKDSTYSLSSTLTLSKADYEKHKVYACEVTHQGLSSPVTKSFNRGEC
# Test Method Notes: binding ELISA, peptide captured, Ab-1 titrated
No end group written: not given here.
Measured Metric: pEC50
Answers are plain numbers, as −log10 of the molar value.

IDWCPRYLWDECYN (cysteine pairing not given here; also: biotinylated, site not given here) [Peptide-23] = 8.68
MDWCPRDLWVHCFA (cysteine pairing not given here; also: biotinylated, site not given here) [Peptide-1] = 9.00
VPWCQIISGLECLT (cysteine pairing not given here; also: biotinylated, site not given here) [Peptide-25] = 7.26
IYWCPIDRWNDCYN (cysteine pairing not given here; also: biotinylated, site not given here) [Peptide-26] = 8.12
LDWCPRHLWALCFN (cysteine pairing not given here; also: biotinylated, site not given here) [Peptide-22] = 8.09

Shift focus to the following entry.
I am curious: what pEC50 value has been reported for IDWCPLHLWHECYH (cysteine pairing not given here; also: biotinylated, site not given here) [Peptide-24] ?
7.88
